FYI, the data here is from PubChem BioAssay (EPA / NIEHS).

test: TAMU_PeakParms_SingleDonor1434_Chronotropy: Texas A&M University (TAMU) 1.5-hr Human Induced Pluripotent Stem Cell (iPSC)-derived Cardiomyocytes Calcium (Ca+2) Flux Assay for Cardiotoxicity: Chronotropy (changes in peak frequency) (AID 2284217); conditions: actives raise or lower the signal
The source made the active and inactive calls. Rule for the calls: active = hit-call score of the fitted dose curve at least 0.9, where 1 is the maximum; inactive = score below 0.9.
Thanks in advance; please answer with one of these: t (active), f (inactive)

Worked cases, answers included:
O=c1[nH]cc(F)c(=O)[nH]1 : f
O=C(O)CCCCC(=O)O : f
COC(=O)c1ccc(O)cc1 : t
CCOc1ccc2c(c1)C(C)=CC(C)(C)N2 : f

Could you please tell me the result logged for CC(=O)Oc1ccccc1C(=O)O in this assay?
f
